- measurement target: T1, Recombinant STUB1 protein, spanning aa25-aa153 (UniProt Q9UNE7 25-153)
- T1 construct: STUB1 (E3 ligase, also STUB1/CHIP), residues 25-153; also called STUB1 (aa25–aa153); CHIP; source: recombinant, produced by Nanyang Technological University protein production platform; purity and identity confirmed by mass spectrometry and SDS-PAGE
- T1 sequence (looked up): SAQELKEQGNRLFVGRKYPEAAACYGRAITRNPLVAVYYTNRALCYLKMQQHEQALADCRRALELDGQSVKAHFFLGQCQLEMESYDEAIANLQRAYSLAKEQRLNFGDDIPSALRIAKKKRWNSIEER
- assay procedure: fluorescence polarisation; competitive; 15 nM tracer 5-FAM-…, 1 µM STUB1 aa25-aa153, peptide of interest 5 nM to 100 µM; room temperature; PBS pH 7.4, 0.01% v/v Tween 20; 30 min incubation
- test parameters: both partners purified
measured parameter: IC50 (nM)
Could you give me the number in nM? Just the number is fine.

Request: Query IC50 for Ac-SIWWPD-OH (source: synthetic peptide, custom made by Chinese Peptide Company (CPC)) [synthetic inhibitory peptide SIWWPD]
Result: 340

Where do the numbers come from? From paper PMC9388626.
